# TEST SYSTEM: RVV-X (Daboia siamensis, UniProt Q4PRD1+Q4PRD2+Q7LZ61)
# Sequence (Q7LZ61 189-615 limits assumed): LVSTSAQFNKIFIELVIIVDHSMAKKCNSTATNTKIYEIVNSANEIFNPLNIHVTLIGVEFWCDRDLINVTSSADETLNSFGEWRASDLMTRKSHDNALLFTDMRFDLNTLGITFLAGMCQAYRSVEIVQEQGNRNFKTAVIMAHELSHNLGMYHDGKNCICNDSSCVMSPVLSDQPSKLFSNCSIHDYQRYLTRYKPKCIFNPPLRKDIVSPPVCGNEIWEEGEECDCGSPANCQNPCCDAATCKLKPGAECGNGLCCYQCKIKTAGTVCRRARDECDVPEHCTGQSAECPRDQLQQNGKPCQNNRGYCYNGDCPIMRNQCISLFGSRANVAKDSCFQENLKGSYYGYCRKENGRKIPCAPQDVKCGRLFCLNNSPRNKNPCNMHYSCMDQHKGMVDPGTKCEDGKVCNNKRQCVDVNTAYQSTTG
# Sequence (Q4PRD1 24-146 limits assumed): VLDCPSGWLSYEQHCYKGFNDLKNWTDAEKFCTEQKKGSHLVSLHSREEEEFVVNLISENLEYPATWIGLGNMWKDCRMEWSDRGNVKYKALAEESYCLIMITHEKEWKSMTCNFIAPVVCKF
# Sequence (Q4PRD2 25-158 limits assumed): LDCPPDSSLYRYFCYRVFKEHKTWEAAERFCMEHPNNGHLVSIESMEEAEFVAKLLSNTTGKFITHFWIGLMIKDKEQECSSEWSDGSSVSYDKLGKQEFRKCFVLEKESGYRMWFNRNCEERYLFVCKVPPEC
# PROTOCOL TEXT: biochemical
# Parameters: species or system Russell's viper
# CONDITION PARAMETERS: read-out: Ki for Factor X Activation, RVV-X
Where no end group is shown, it is not given here.
PROPERTY LABEL: pKi
Please express pKi as -log10 of the molar concentration.

Considering AVLRLKTPITFRMNVAPACL [Peptide 284-303] , its pKi with RVV-X (Daboia siamensis, UniProt Q4PRD1+Q4PRD2+Q7LZ61) was recorded as 3.91

---

# TEST SYSTEM: RVV-X (Daboia siamensis, UniProt Q4PRD1+Q4PRD2+Q7LZ61)
# PROTOCOL TEXT: biochemical
# Set-up: species or system Russell's viper
# CONDITION PARAMETERS: read-out: Concentration for 50% Inhibition, Rate of Factor Xa Formation, RVV.X
Where no end group is shown, it is not given here.
PROPERTY LABEL: pIC50
API: returns pIC50 as number; meaning -log10 of concentration in mol/L.

The recorded pIC50 for entry AVLRLKTPITFRMNVAPACL [Peptide 284-303] equals 3.98

---

# TEST SYSTEM: extrinsic activation complex (factor VIIa:tissue factor) (Homo sapiens, UniProt P08709+P13726)
# Sequence (P08709 61-212 limits assumed): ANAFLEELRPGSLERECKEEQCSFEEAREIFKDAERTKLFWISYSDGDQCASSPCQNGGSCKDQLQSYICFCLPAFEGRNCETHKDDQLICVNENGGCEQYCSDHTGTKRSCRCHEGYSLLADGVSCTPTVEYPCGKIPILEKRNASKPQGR
# Sequence (P08709 213-466 limits assumed): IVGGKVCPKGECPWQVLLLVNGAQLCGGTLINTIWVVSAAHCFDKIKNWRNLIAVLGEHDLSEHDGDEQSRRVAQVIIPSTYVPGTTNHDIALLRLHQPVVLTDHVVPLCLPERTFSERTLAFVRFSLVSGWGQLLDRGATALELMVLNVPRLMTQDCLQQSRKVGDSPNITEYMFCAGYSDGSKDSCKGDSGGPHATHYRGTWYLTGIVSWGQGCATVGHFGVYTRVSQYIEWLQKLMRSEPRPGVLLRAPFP
# Sequence (P13726 33-295): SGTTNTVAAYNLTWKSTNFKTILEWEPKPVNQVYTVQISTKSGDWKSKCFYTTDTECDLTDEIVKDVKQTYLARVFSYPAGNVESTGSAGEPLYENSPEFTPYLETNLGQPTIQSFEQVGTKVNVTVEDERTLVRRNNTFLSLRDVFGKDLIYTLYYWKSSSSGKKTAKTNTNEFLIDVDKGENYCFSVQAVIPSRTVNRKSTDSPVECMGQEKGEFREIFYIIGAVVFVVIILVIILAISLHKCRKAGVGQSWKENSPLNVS
# PROTOCOL TEXT: Rate of Factor Xa formation by the extrinsic activation complex, kinetic chromogenic assay
# Assay type: biochemical
# CONDITION PARAMETERS: chromogenic assay; read-out: Concentration for 50% Inhibition, Rate of Factor Xa Formation, Extrinsic
Where no end group is shown, it is not given here.
PROPERTY LABEL: pIC50
Please express pIC50 as -log10 of the molar concentration.

Please fill in: pIC50 reported for AVLRLKTPITFRMNVAPACL [Peptide 284-303] = 4.11

---

# TEST SYSTEM: Factor Xa:Factor Va complex (Homo sapiens, UniProt P12259)
# PROTOCOL TEXT: Rate of thrombin formation (prothrombin activation by Factor Xa), chromogenic assay
# Assay type: biochemical
# CONDITION PARAMETERS: assays varying the substrate prothrombin; read-out: Ki for Factor Xa Function
Where no end group is shown, it is not given here.
PROPERTY LABEL: Ki (µM)
Give the number; µM is assumed, so skip it.

The reported value for AVLRLKTPITFRMNVAPACL [Peptide 284-303] in terms of Ki is 16.2

---

# TEST SYSTEM: extrinsic activation complex (factor VIIa:tissue factor) (Homo sapiens, UniProt P08709+P13726)
# PROTOCOL TEXT: Rate of Factor Xa formation by the extrinsic activation complex, kinetic chromogenic assay
# Format: biochemical
# CONDITION PARAMETERS: Dixon plots, mean ± SD for 4 to 5 determinations; read-out: Ki for Factor X Activation, Extrinsic
Where no end group is shown, it is not given here.
PROPERTY LABEL: pKi
Lab note — pKi values are minus log10 of concentrations in M.

The sequence listed as AVLRLKTPITFRMNVAPACL [Peptide 284-303] has a reported pKi of 4.13

---

# TEST SYSTEM: extrinsic activation complex (factor VIIa:tissue factor) (Homo sapiens, UniProt P08709+P13726)
# PROTOCOL TEXT: Rate of Factor Xa formation by the extrinsic activation complex, kinetic chromogenic assay
# Assay type: biochemical
# CONDITION PARAMETERS: 1 mg/ml (0.29-1.1 mM) peptide, 30 min at 37 degrees preincubation
Where no end group is shown, it is not given here.
Listed below: Factor Xa Formation (% of Control Rate) Extrinsic values for each entry.

                                  substance           assay_result
0      TEQE*GGEAVHEVEVVIK [Peptide 253-270]  100 % of Control Rate
1          CARGYTLADNGKAC [Peptide 111-124]   83 % of Control Rate
2    AVLRLKTPITFRMNVAPACL [Peptide 284-303]   19 % of Control Rate
3  LYQAKRF *EGDRNTEQEEGG(K) [Peptide 238-259 + K]  100 % of Control Rate

Entry IVGGQECKDGECPWQA(K) (C-terminal added Lys) [Peptide 195-210 + K] , Factor Xa Formation (% of Control Rate) Extrinsic reported as 88 % of Control Rate

---

# TEST SYSTEM: Factor Xa:Factor Va complex (Homo sapiens, UniProt P12259)
# Sequence (P12259 29-737 limits assumed): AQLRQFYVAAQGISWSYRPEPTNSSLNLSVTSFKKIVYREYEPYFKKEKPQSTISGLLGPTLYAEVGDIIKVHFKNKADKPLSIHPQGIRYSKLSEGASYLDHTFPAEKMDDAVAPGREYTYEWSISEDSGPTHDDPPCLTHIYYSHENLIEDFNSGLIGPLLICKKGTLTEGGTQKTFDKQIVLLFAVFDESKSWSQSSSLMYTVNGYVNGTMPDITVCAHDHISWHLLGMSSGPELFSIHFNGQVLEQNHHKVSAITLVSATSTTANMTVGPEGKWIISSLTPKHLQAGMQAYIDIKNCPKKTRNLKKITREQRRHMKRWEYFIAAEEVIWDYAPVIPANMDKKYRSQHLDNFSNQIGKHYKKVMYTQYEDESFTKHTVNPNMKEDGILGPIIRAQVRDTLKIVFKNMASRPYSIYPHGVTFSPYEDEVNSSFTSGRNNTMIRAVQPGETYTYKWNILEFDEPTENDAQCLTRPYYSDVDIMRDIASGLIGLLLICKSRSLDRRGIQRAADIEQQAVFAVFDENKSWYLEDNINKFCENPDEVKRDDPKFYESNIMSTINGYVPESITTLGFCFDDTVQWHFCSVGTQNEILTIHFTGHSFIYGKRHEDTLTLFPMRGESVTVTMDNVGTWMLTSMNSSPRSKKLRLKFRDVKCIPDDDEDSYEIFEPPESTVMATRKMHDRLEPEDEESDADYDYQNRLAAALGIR
# Sequence (P12259 1574-2224 limits assumed): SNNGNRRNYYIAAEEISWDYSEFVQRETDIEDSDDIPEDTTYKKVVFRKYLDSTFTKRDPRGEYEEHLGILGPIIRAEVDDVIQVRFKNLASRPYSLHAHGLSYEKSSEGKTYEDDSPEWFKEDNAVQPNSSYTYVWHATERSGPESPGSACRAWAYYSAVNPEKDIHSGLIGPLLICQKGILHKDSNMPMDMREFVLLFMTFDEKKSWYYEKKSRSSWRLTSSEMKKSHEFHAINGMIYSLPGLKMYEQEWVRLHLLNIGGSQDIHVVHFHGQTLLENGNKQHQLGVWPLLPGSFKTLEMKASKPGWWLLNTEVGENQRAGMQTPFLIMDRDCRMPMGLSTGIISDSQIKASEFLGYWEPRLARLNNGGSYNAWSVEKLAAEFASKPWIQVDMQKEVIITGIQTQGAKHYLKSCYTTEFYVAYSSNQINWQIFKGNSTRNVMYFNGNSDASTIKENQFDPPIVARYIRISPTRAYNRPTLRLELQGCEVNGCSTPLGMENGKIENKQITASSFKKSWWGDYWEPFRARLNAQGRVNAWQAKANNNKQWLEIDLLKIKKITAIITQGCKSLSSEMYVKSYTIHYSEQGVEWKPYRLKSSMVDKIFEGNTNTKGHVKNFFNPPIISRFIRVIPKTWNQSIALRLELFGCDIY
# PROTOCOL TEXT: Rate of thrombin formation (prothrombin activation by Factor Xa), chromogenic assay
# Type: biochemical
# CONDITION PARAMETERS: 200 μM final concentration of peptide
Where no end group is shown, it is not given here.
PROPERTY LABEL: Thrombin Formation (% of Control Rate)

Example cases with answers are listed next.
                                  substance                               test_system                          property_label           assay_result
0          CARGYTLADNGKAC [Peptide 111-124]  Factor Xa:Factor Va complex (Homo sapiens, UniProt P12259)  Thrombin Formation (% of Control Rate)  100 % of Control Rate
1  IVGGQECKDGECPWQA(K) (C-terminal added Lys) [Peptide 195-210 + K]  Factor Xa:Factor Va complex (Homo sapiens, UniProt P12259)  Thrombin Formation (% of Control Rate)   99 % of Control Rate
2    AVLRLKTPITFRMNVAPACL [Peptide 284-303]  Factor Xa:Factor Va complex (Homo sapiens, UniProt P12259)  Thrombin Formation (% of Control Rate)    0 % of Control Rate

# context switch: different substance, same Thrombin Formation (% of Control Rate)
Entry LYQAKRF *EGDRNTEQEEGG(K) [Peptide 238-259 + K] — recorded Thrombin Formation (% of Control Rate) = 98 % of Control Rate
